Cited source for all entries: patent US20240024488A1

Assayed System: HiBit-BRM fusion protein (Homo sapiens, UniProt P51531)
Construct: expressed in transfected cells
Sequence (P51531 whole entry, the tested form may be a part): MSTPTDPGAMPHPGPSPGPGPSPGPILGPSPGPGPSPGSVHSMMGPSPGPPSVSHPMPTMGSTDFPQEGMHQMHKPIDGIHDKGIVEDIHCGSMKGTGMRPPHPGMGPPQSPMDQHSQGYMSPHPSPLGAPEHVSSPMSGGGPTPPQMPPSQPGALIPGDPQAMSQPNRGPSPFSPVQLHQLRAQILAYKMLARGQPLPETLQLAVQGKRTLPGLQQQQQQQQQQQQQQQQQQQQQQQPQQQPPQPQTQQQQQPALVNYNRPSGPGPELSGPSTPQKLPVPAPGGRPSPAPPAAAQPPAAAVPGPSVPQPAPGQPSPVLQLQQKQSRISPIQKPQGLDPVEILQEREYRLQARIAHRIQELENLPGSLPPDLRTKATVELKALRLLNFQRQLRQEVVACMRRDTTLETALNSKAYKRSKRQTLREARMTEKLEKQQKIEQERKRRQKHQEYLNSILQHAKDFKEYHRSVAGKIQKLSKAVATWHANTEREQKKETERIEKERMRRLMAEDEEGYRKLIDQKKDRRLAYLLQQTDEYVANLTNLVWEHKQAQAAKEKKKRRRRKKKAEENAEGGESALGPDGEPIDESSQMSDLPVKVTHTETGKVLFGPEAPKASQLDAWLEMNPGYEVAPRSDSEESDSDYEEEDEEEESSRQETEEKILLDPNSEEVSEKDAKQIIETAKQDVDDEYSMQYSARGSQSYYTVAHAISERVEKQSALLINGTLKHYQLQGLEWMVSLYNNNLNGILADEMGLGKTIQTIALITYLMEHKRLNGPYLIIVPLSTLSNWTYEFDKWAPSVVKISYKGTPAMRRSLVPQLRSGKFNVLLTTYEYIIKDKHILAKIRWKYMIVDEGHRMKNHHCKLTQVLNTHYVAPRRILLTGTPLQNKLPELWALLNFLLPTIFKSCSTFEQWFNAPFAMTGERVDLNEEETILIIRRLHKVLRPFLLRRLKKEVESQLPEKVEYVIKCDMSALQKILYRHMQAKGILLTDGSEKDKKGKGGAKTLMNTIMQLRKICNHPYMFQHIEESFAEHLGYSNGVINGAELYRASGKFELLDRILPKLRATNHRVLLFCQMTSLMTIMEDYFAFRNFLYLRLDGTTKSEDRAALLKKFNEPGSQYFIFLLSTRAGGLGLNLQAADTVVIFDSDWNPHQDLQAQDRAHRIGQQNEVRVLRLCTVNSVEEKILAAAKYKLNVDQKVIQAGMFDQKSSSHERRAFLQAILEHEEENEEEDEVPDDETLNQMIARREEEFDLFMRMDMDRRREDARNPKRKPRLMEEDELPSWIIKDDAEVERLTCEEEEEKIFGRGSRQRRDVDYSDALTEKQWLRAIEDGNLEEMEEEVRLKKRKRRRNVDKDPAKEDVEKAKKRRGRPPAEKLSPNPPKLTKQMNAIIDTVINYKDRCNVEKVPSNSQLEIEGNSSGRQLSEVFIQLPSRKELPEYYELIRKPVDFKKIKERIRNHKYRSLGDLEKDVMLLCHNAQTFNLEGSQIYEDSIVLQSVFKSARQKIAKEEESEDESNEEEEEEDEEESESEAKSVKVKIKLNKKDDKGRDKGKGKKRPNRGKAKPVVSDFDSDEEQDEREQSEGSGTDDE
Assay Explanation: HiBiT-BRM cell-based degradation assay (Nano-Glo HiBiT Lytic Detection, 24 h)
Details: HeLa cell line expressing HiBiT-BRM, read-out: BRM HiBit Degradation IC50
Procedure: Procedure: A stable HeLa cell line expressing HiBiT-BRM was generated. On day 0, 5000 cells were seeded in 40 μL of media into each well of 384-well cell culture plates. […] The plates were shaken for 10 minutes at room temperature and the bioluminescence read using an EnVision plate reader (PerkinElmer). The degradation % was calculated using the following formula: % degradation=100%−100%×(LumSample−LumLC)/(LumHC−LumLC). […]
Provide the reported DC50 of each item.

Test item Cc1ncsc1-c1ccc([C@H](C)NC(=O)[C@@H]2C[C@@H](O)CN2C(=O)[C@@H](c2cc(OCCN3CCC(N4CC(c5cc6cc(-c7ccccc7O)nnc6[nH]5)C4)CC3)no2)C(C)C)cc1 (racemic) [Compound 48] ; HiBit-BRM fusion protein (Homo sapiens, UniProt P51531); reported DC50 was > 10 nM

Test item Cc1ncsc1-c1ccc([C@H](C)NC(=O)[C@@H]2C[C@@H](O)CN2C(=O)[C@@H](c2cc(N3CCC(C(=O)NC(=N)N4CCc5[nH]c6nnc(-c7ccccc7O)cc6c5C4)CC3)no2)C(C)C)cc1 (racemic) [Compound 74] ; HiBit-BRM fusion protein (Homo sapiens, UniProt P51531); reported DC50 was > 10 nM

Test item Cc1ncsc1-c1ccc([C@H](C)NC(=O)[C@@H]2C[C@@H](O)CN2C(=O)[C@@H](c2cc(OCCN(C)[C@H]3CCc4[nH]c5nnc(-c6ccccc6O)cc5c4C3)no2)C(C)C)cc1 (single isomer, unassigned) [Compound 165] ; HiBit-BRM fusion protein (Homo sapiens, UniProt P51531); reported DC50 was > 100 nM

Test item Cc1ncsc1-c1ccc([C@H](C)NC(=O)[C@@H]2C[C@@H](O)CN2C(=O)[C@@H](c2cc(OCCNC(=O)[C@@H]3CCc4[nH]c5nnc(-c6ccccc6O)cc5c4C3)no2)C(C)C)cc1 (single isomer, unassigned) [Compound 172] ; HiBit-BRM fusion protein (Homo sapiens, UniProt P51531); reported DC50 was > 10 nM

Test item O=C1CCC(N2C(=O)c3ccc(NCCCCCCCCC(=O)N4CC(c5cc6cc(-c7ccccc7O)nnc6[nH]5)C4)cc3C2=O)C(=O)N1 (centres unmarked) [Compound 9] ; HiBit-BRM fusion protein (Homo sapiens, UniProt P51531); reported DC50 was > 1000 nM

Test item Cc1ncsc1-c1ccc([C@H](C)NC(=O)[C@@H]2C[C@@H](O)CN2C(=O)[C@@H](c2cc(OCCN3CCC(c4cc5cc(-c6ccccc6O)nnc5[nH]4)C3)no2)C(C)C)cc1 (mixture of isomers) [Compound 52] ; HiBit-BRM fusion protein (Homo sapiens, UniProt P51531); reported DC50 was > 10 nM

Test item Cc1ncsc1-c1ccc([C@H](C)NC(=O)[C@@H]2C[C@@H](O)CN2C(=O)[C@@H](c2cc(OCCNC(=O)C(=O)N3CC(c4cc5cc(-c6ccccc6O)nnc5[nH]4)C3)no2)C(C)C)cc1 (racemic) [Compound 240] ; HiBit-BRM fusion protein (Homo sapiens, UniProt P51531); reported DC50 was > 100 nM

Test item Cc1ncsc1-c1ccc([C@H](C)NC(=O)[C@@H]2C[C@@H](O)CN2C(=O)[C@@H](c2cc(OCC(=O)N[C@@H]3CCc4[nH]c5nnc(-c6ccccc6O)cc5c4C3)no2)C(C)C)cc1 [Compound 150] ; HiBit-BRM fusion protein (Homo sapiens, UniProt P51531); reported DC50 was > 10 nM

Test item Cc1ncsc1-c1ccc([C@H](C)NC(=O)[C@@H]2C[C@@H](O)CN2C(=O)[C@H](c2cc([C@H]3CC[C@@H](c4cnc(N5CCC(c6c[nH]c7nnc(-c8ccccc8O)cc67)CC5)nc4)CC3)no2)C(C)C)cc1 [Compound 309] ; HiBit-BRM fusion protein (Homo sapiens, UniProt P51531); reported DC50 was > 100 nM

Test item Cc1ncsc1-c1ccc([C@H](C)NC(=O)[C@@H]2C[C@@H](O)CN2C(=O)[C@@H](c2cc(N3CCC(N(C)[C@H]4CCc5[nH]c6nnc(-c7ccccc7O)cc6c5C4)CC3)no2)C(C)C)cc1 (racemic) [Compound 111] ; HiBit-BRM fusion protein (Homo sapiens, UniProt P51531); reported DC50 was > 10 nM

Test item Cc1ncsc1-c1ccc([C@H](C)NC(=O)[C@@H]2C[C@@H](O)CN2C(=O)[C@@H](c2cc(OCCN3CC(c4[nH]c5nnc(-c6cccc(F)c6O)cc5c4C)C3)no2)C(C)C)cc1 (racemic) [Compound 127] ; HiBit-BRM fusion protein (Homo sapiens, UniProt P51531); reported DC50 was > 10 nM

Test item Cc1ncsc1-c1ccc([C@H](C)NC(=O)[C@@H]2C[C@@H](O)CN2C(=O)[C@@H](c2cc(OCCN3CCC(c4cc5cc(-c6ccccc6O)nnc5[nH]4)CC3)no2)C(C)C)cc1 (racemic) [Compound 51] ; HiBit-BRM fusion protein (Homo sapiens, UniProt P51531); reported DC50 was > 10 nM

Test item Cc1ncsc1-c1ccc([C@H](C)NC(=O)[C@@H]2C[C@@H](O)CN2C(=O)[C@@H](c2cc(OCCN3CCN(Cc4cc5cc(-c6ccccc6O)nnc5[nH]4)CC3)no2)C(C)C)cc1 (racemic) [Compound 208] ; HiBit-BRM fusion protein (Homo sapiens, UniProt P51531); reported DC50 was > 10 nM

Test item Cc1ncsc1-c1ccc([C@H](C)NC(=O)[C@@H]2C[C@@H](O)CN2C(=O)[C@@H](c2cc(-c3cnc(N4CCc5[nH]c6nnc(-c7ccccc7O)cc6c5C4)nc3)no2)C(C)C)cc1 (single isomer, unassigned) [Compound 85] ; HiBit-BRM fusion protein (Homo sapiens, UniProt P51531); reported DC50 was > 10 nM

Test item Cc1ncsc1-c1ccc([C@H](C)NC(=O)[C@@H]2C[C@@H](O)CN2C(=O)[C@@H](c2cc(OCCN3CC(c4[nH]c5nnc(-c6cc(F)cc(Cl)c6O)cc5c4C)C3)no2)C(C)C)cc1 (racemic) [Compound 129] ; HiBit-BRM fusion protein (Homo sapiens, UniProt P51531); reported DC50 was > 10 nM

Test item Cc1ncsc1-c1ccc([C@H](C)NC(=O)[C@@H]2C[C@@H](O)CN2C(=O)[C@@H](c2cc(C3CCN(C(=O)[C@@H]4CCc5[nH]c6nnc(-c7ccccc7O)cc6c5C4)CC3)no2)C(C)C)cc1 (single isomer, unassigned) [Compound 166] ; HiBit-BRM fusion protein (Homo sapiens, UniProt P51531); reported DC50 was > 10 nM

Test item Cc1ncsc1-c1ccc([C@H](C)NC(=O)[C@@H]2C[C@@H](O)CN2C(=O)[C@@H](c2cc(OCCCN3CCN(Cc4cc5cc(-c6ccccc6O)nnc5[nH]4)CC3)no2)C(C)C)cc1 (racemic) [Compound 214] ; HiBit-BRM fusion protein (Homo sapiens, UniProt P51531); reported DC50 was > 100 nM
